Values from patent US10266497B2

- TARGET_OR_TEST_SYSTEM: FAAH (Mus musculus)
- EXPERIMENT_SUMMARY: In vitro competitive activity-based protein profiling, FAAH, mouse
- ASSAY_CONTEXT: read-out: FAAH % inh. 1 μM (mouse)
METRIC: inhibition at 1 µM

inhibition at 1 µM of O=C(O)c1ccn(C(=O)N2C[C@H]3C[C@@H](OCc4ccccc4Cl)C[C@H]3C2)n1 , assay on FAAH (Mus musculus), is 0 to 25%

###

Target sequence: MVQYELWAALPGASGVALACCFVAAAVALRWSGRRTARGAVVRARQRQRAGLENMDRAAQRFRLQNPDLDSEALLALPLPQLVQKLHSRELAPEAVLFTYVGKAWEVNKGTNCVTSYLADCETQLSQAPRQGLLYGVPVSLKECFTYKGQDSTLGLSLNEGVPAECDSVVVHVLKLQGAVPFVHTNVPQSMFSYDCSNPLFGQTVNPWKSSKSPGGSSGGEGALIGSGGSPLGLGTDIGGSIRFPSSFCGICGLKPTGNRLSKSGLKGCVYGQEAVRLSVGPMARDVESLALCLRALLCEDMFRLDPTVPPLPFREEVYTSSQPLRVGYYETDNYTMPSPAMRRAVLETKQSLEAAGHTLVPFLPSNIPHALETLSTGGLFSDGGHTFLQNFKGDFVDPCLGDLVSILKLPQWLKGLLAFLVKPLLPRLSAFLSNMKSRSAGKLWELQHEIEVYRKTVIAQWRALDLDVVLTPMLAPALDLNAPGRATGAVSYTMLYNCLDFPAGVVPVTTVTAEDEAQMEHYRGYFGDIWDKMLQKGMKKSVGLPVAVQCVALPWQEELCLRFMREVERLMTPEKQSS
This listing pairs compounds with measured IC50.

[[record]]
compound = "O=C(O)c1ccn(C(=O)N2CCN(Cc3ccc(C(F)(F)F)cc3N3CCOCC3)CC2)n1 [Example 3]"
metric = "IC50"
observed_result = "1000 to 10000 nM"


Consider O=C(O)c1ccn(C(=O)N2CCN(Cc3cc(Cl)cc(Oc4ccc(Cl)cc4)c3)CC2)n1 [Example 19] . Its measured IC50 is 100 to 1000 nM

In plain terms, O=C(O)c1ccn(C(=O)N2C[C@H]3C[C@H](OCc4cccc(C(F)(F)F)c4)C[C@H]3C2)n1 [Example 157] has a documented IC50 of 100 to 1000 nM

Entry O=C(O)c1nn(C(=O)N2CC3CN(Cc4ccc(N5CCCC5)cc4C(F)(F)F)CC3C2)cc1Cl (stereo not shown) [Example 140] ; IC50 = 100 to 1000 nM

Short answer for O=C(O)c1ccn(C(=O)N2CCN(Cc3ccc(C(F)(F)F)cc3N3CCCC3)CC2)n1 [Example 83] : IC50 was 1000 to 10000 nM

Memo: Cc1c(CO[C@H]2C[C@@H]3CN(C(=O)n4ccc(C(=O)O)n4)C[C@@H]3C2)cccc1C(F)(F)F [Example 159] , reported IC50: 100 to 1000 nM

// sample O=C(O)c1ccn(C(=O)N2CCC(OCc3cc(F)cc(Cl)c3)CC2)n1 [Example 42] , its IC50 was 100 to 1000 nM

###

- TARGET_OR_TEST_SYSTEM: MAGL (Homo sapiens)
- Sequence (Q99685 whole entry): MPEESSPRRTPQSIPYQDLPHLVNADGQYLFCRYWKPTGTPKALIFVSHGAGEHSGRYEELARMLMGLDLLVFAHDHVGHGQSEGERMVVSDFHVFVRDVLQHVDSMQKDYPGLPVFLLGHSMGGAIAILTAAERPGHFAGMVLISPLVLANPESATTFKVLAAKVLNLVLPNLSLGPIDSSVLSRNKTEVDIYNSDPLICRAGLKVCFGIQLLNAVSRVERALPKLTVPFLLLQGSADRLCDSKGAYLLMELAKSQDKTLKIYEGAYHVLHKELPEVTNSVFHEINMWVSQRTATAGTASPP
pIC50: −log10 of the molar value.
Measured pIC50 accompanies every entry in the list below.

[[record]]
compound = "O=C(O)c1nn(C(=O)N2CCC3(CCCN3Cc3cc4ccc(C(F)(F)F)cc4s3)CC2)cc1C(F)(F)F [Example 149]"
observed_result = "6.00 to 7.00"


Let me check: O=C(O)c1ccn(C(=O)N2CCC(OCc3cc(F)cc(Cl)c3)CC2)n1 [Example 42] , system MAGL (Homo sapiens), measured pIC50 is 6.00 to 7.00

I looked up O=C(O)c1nn(C(=O)N2CC3CC(OCc4ccccc4Cl)CC3C2)cc1C(F)(F)F (stereo not drawn) [Example 143] and its pIC50 for MAGL (Homo sapiens) was 5.00 to 6.00

Bench note, MAGL (Homo sapiens): entry Cc1cc(CN2CCC3(CCN(C(=O)n4ccc(C(=O)O)n4)CC3)C2)ccc1C(F)(F)F [Example 155] , its pIC50 = 6.00 to 7.00

Query Cc1cc(-c2ccccc2)ccc1CN1CCN(C(=O)n2ccc(C(=O)O)n2)[C@@H](C)C1 [Example 246] on MAGL (Homo sapiens); pIC50 returned: 6.00 to 7.00

With MAGL (Homo sapiens) as the test system, Cc1cn(C(=O)N2CCC3(CC2)CN(Cc2cc(Cl)ccc2C(F)(F)F)C3)nc1C(=O)O [Example 131] showed pIC50 of 6.00 to 7.00

###

- TARGET_OR_TEST_SYSTEM: FAAH (Mus musculus, UniProt O08914)
- Sequence (O08914 whole entry): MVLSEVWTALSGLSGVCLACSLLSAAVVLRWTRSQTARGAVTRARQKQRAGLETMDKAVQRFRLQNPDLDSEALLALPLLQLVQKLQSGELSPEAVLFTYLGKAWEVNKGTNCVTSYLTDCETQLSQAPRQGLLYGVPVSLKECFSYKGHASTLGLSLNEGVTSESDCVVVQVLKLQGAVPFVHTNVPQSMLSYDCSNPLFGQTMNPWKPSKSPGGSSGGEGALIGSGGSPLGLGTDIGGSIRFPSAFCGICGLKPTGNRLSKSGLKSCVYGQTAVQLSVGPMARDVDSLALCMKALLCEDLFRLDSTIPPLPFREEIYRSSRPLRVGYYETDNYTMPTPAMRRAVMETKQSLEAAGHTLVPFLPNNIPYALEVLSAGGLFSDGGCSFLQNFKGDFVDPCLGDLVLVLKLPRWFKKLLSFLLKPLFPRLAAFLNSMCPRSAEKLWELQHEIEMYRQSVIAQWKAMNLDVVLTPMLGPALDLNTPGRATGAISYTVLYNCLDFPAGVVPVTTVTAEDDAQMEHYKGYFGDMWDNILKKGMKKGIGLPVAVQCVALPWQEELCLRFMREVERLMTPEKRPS
- EXPERIMENT_SUMMARY: In vitro competitive activity-based protein profiling, FAAH, mouse
- ASSAY_CONTEXT: read-out: FAAH % inh. 1 μM (mouse)
Below, each entry is listed alongside its reported inhibition at 1 µM.

Look over these answered cases.
[[record]]
compound = "O=C(O)c1ccn(C(=O)N2CCC3(CCN(Cc4cc(Cl)cc(Cl)c4)C3)CC2)n1"
target_or_test_system = "FAAH (Mus musculus, UniProt O08914)"
observed_result = "25 to 50%"

[[record]]
compound = "NC(=O)C1CCN(c2cc(C(F)(F)F)ccc2CN2CCN(C(=O)n3ccc(C(=O)O)n3)CC2)CC1"
target_or_test_system = "FAAH (Mus musculus, UniProt O08914)"
observed_result = "0 to 25%"

[[record]]
compound = "O=C(O)c1nn(C(=O)N2CC3CN(Cc4cc(Cl)ccc4Cl)CC3C2)cc1C(F)(F)F (stereo not shown)"
target_or_test_system = "FAAH (Mus musculus, UniProt O08914)"
observed_result = "> 75%"

[[record]]
compound = "Cc1c(CO[C@H]2C[C@@H]3CN(C(=O)n4ccc(C(=O)O)n4)C[C@@H]3C2)cccc1C(F)(F)F"
target_or_test_system = "FAAH (Mus musculus, UniProt O08914)"
observed_result = "> 75%"

[[record]]
compound = "O=C(O)c1ccn(C(=O)N2CCN(Cc3ccc(C(F)(F)F)c(-c4nccs4)c3)CC2)n1"
target_or_test_system = "FAAH (Mus musculus, UniProt O08914)"
observed_result = "0 to 25%"


The value of inhibition at 1 µM measured for the compound O=C(O)c1ccn(C(=O)N2CCN(Cc3ccc(C(F)(F)F)cc3N3CCCCC3)CC2)n1 turned out to be 0 to 25%

In plain terms, O=C(O)c1nn(C(=O)N2CCC3(CCN(Cc4ccc(N5CCCC5)cc4C(F)(F)F)C3)CC2)cc1C(F)(F)F has a documented inhibition at 1 µM of > 75%

Record O=C(O)c1ccn(C(=O)N2CCC3(CCN(Cc4ccc(N5CCCC5)cc4C(F)(F)F)C3)CC2)n1 , field inhibition at 1 µM: 0 to 25%

get_value(item= O=C(O)c1ccn(C(=O)N2CCN(Cc3ccc(C(F)(F)F)cc3N3C4CCC3COC4)CC2)n1 , readout=inhibition at 1 µM) returns 0 to 25%

inhibition at 1 µM for O=C(O)c1ccn(C(=O)N2CCC3(CCN(Cc4cccc(OC(F)(F)F)c4)C3)CC2)n1 is 25 to 50%

inhibition at 1 µM reading for O=C(O)c1ccn(C(=O)N2CCN(Cc3ccc(C(F)(F)F)cc3N3CC[C@@H](F)C3)CC2)n1 : 0 to 25%

Value of measured inhibition at 1 µM for the entry CN(Cc1cccc(Cl)c1N1CCCC1)C1(C)CCN(C(=O)n2ccc(C(=O)O)n2)CC1 : 0 to 25%

Data point: O=C(O)c1ccn(C(=O)N2CC3CN(Cc4cccc(-c5ccccc5)c4)CC3C2)n1 (stereo not shown) ; inhibition at 1 µM = > 75%

# inhibition at 1 µM (compound: O=C(O)c1ccn(C(=O)N2CCN(Cc3ccc(C(F)(F)F)cc3-c3nnn[nH]3)CC2)n1 ) is 0 to 25%

Note to self: inhibition at 1 µM recorded for NC(=O)c1ccn(C(=O)N2CCC3(CCCN3Cc3ccc(C(F)(F)F)cc3N3CCCC3)CC2)n1 was 25 to 50%

Lookup result for O=C(O)c1ccn(C(=O)N2CCN(Cc3cccc(-c4ncccn4)c3)CC2)n1 ; measured inhibition at 1 µM: 0 to 25%

###

Here the recorded inhibition at 5 mg/kg is given for each entry.
- TARGET_OR_TEST_SYSTEM: UniProt O08914
- EXPERIMENT_SUMMARY: Mouse brain proteomes from inhibitor treated mice (oral gavage, sacrificed 4 h after administration), FAAH
- Type: in vivo
- Set-up: mouse brain membrane fraction for mouse assays; from tissue; host or cells: mouse brain (membrane fraction in vitro; brain proteomes of treated C57Bl/6J mice in vivo)
- ASSAY_CONTEXT: 5 mg/kg oral gavage, brain proteome 4 h after administration, read-out: FAAH % inh. 5 mg/kg (mouse)

Recorded results for 7 molecules are shown here.
[[record]]
molecule = "C[C@@H]1CCCN1c1cc(C(F)(F)F)ccc1CN1CCN(C(=O)n2ccc(C(=O)O)n2)CC1"
target_or_test_system = "UniProt O08914"
metric = "inhibition at 5 mg/kg"
observed_result = "0 to 25%"

[[record]]
molecule = "O=C(O)c1ccn(C(=O)N2CCC3(CCCN3Cc3ccc(C(F)(F)F)cc3N3CCCC3)CC2)n1"
target_or_test_system = "UniProt O08914"
metric = "inhibition at 5 mg/kg"
observed_result = "0 to 25%"

[[record]]
molecule = "O=C(O)c1ccn(C(=O)N2CCN(Cc3cccc(Oc4ccc(Cl)cc4)c3)CC2)n1"
target_or_test_system = "UniProt O08914"
metric = "inhibition at 5 mg/kg"
observed_result = "0 to 25%"

[[record]]
molecule = "O=C(O)c1ccn(C(=O)N2CCN(Cc3ccc(C(F)(F)F)cc3N3CCOCC3)CC2)n1"
target_or_test_system = "UniProt O08914"
metric = "inhibition at 5 mg/kg"
observed_result = "0 to 25%"

[[record]]
molecule = "O=C(O)c1ccn(C(=O)N2CCN(Cc3ccc(C(F)(F)F)cc3N3CC4COCC4C3)CC2)n1 (centres unmarked)"
target_or_test_system = "UniProt O08914"
metric = "inhibition at 5 mg/kg"
observed_result = "0 to 25%"

[[record]]
molecule = "Cc1c(CN2CCN(C(=O)n3ccc(C(=O)O)n3)CC2)[nH]c2ccc(Cl)cc12"
target_or_test_system = "UniProt O08914"
metric = "inhibition at 5 mg/kg"
observed_result = "0 to 25%"

[[record]]
molecule = "O=C(O)c1ccn(C(=O)N2CCN(Cc3ccc(C(F)(F)F)cc3N3CCCCC3)CC2)n1"
target_or_test_system = "UniProt O08914"
metric = "inhibition at 5 mg/kg"
observed_result = "0 to 25%"


// next entry
O=C(O)c1ccn(C(=O)N2CCN(Cc3ccc(C(F)(F)F)c(N4CCCC4)c3)CC2)n1 has a reported inhibition at 5 mg/kg of 0 to 25%
